# System: kochia
# method-notes: Test A pre-/postemergence herbicide test
# Type: in vivo, Kochia scoparia
# condition-info: preemergence; 500 g ai/ha; 0 to 100 scale, 0 is no effect and 100 is complete control
# Source text: […]
assay-metric: Plant response rating, Kochia
Please give only the number in your answer, with no unit.

compound="O=C1NCC(c2cccc(C(F)F)c2)C1C(=O)Nc1cccc(F)c1F (racemic)" system_under_test=kochia measurement=70
compound="Cc1ccc(C2CNC(=O)C2C(=O)Nc2ccccc2Cl)cc1 (racemic)" system_under_test=kochia measurement=60
compound="O=C1NCC(c2ccc(Cl)cc2)C1C(=O)Nc1cccc(Cl)c1Cl (stereo not shown)" system_under_test=kochia measurement=0

Turning to the following compound.
Q: Note Plant response rating, Kochia for the compound shown: Cc1ccc(C2CNC(=O)C2C(=O)Nc2cccc(F)c2)cc1 (racemic)
Result: 80

----------
# Tested on: kochia
# method-notes: Test A pre-/postemergence herbicide test
# Assay type: in vivo, Kochia scoparia
# condition-info: preemergence; 500 g ai/ha; 0 to 100 scale, 0 is no effect and 100 is complete control
assay-metric: Plant response rating, Kochia
Please give only the number in your answer, with no unit.

In the examples that follow, each entry is paired with its recorded Plant response rating, Kochia.
compound="Cc1cc(NC(=O)C2C(=O)NCC2c2cccc(C(F)(F)F)c2)ccc1F (racemic)" measurement=40
compound="O=C1NCC(c2cc3ccccc3o2)C1C(=O)Nc1cccc(F)c1F (stereo not shown)" measurement=50
compound="O=C1NCC(c2ccc(Cl)s2)C1C(=O)Nc1ccccc1C(F)(F)F (stereo not shown)" measurement=0
compound="COc1ccc(C2CNC(=O)C2C(=O)Nc2ccccc2C(F)(F)F)cc1C(F)(F)F (stereo not shown)" measurement=0
compound="Cc1ccc(F)c(NC(=O)C2C(=O)NCC2c2cccc(C(F)(F)F)c2)c1 (racemic)" measurement=0
compound="CN1CC(c2cccc(C(F)(F)F)c2)C(C(=O)Nc2ccccc2F)C1=O (stereo not shown)" measurement=60

Turning to the following compound.
Q: Note Plant response rating, Kochia for the compound shown: O=C1NCC(c2cccc(C(F)(F)F)c2)C1C(=O)Nc1ccc(F)cc1F (racemic)
Result: 30

----------
This section presents compounds with their documented Plant response rating, Galium values.
# Test system: galium
# method-notes: Test A postemergence herbicide test
# Type: in vivo, Galium aparine
# condition-info: 125 g ai/ha, visual rating on 0 to 100 scale (0 no effect, 100 complete control), approx. 10 days
Please give only the number in your answer, with no unit.

In the examples that follow, each entry is paired with its recorded Plant response rating, Galium.
compound="O=C1NCC(c2cnn(CC(F)(F)F)c2)C1C(=O)Nc1cccc(F)c1F (stereo not shown) [Compound 299]" assay_metric="Plant response rating, Galium" measurement=0
compound="O=C1NCC(c2cc3ccccc3s2)C1C(=O)Nc1ccccc1F (stereo not shown) [Compound 295]" assay_metric="Plant response rating, Galium" measurement=0
compound="O=C1NCC(c2cccc(OC(F)F)c2)C1C(=O)Nc1cccc(F)c1F (stereo not shown) [Compound 324]" assay_metric="Plant response rating, Galium" measurement=40

Turning to the following compound.
Q: Note Plant response rating, Galium for the compound shown: O=C1NCC(c2cccc(OC(F)F)c2)C1C(=O)Nc1ccc(F)c(F)c1F (stereo not shown) [Compound 325]
Result: 50

----------
This section presents compounds with their documented Plant response rating, Ryegrass, Italian values.
# System: ryegrass, Italian
# method-notes: Test A pre-/postemergence herbicide test
# Format: in vivo, Lolium multiflorum
# condition-info: 125 g ai/ha; visual rating, 0 to 100 scale, 0 no effect, 100 complete control; approximately 10 days; preemergence

compound="CCc1cccc(C2CNC(=O)C2C(=O)Nc2cccc(F)c2F)c1 (racemic)" system_under_test="ryegrass, Italian" measurement=0

Q: Lab note: record Plant response rating, Ryegrass, Italian of O=C1NCC(c2cccc(C(F)(F)F)c2)C1C(=O)Nc1ccc(F)cc1F (racemic) tested on ryegrass, Italian.
Result: 20

Q: Lab note: record Plant response rating, Ryegrass, Italian of O=C1NCC(c2ccc(Cl)cc2)C1C(=O)Nc1ccccc1C(F)(F)F (stereo not drawn) tested on ryegrass, Italian.
Result: 0

Q: Lab note: record Plant response rating, Ryegrass, Italian of Cc1ccc(C2CNC(=O)C2C(=O)Nc2cccc(F)c2F)cc1 (racemic) tested on ryegrass, Italian.
Result: 10

Q: Lab note: record Plant response rating, Ryegrass, Italian of Cc1cc(NC(=O)C2C(=O)NCC2c2cccc(C(F)(F)F)c2)ccc1F (racemic) tested on ryegrass, Italian.
Result: 0

Q: Lab note: record Plant response rating, Ryegrass, Italian of O=C1NCC(c2cccc(C(F)(F)F)c2)C1C(=O)Nc1ncc(Cl)s1 (racemic) tested on ryegrass, Italian.
Result: 0

Q: Lab note: record Plant response rating, Ryegrass, Italian of O=C1NCC(c2cccc(C3CC3)c2)C1C(=O)Nc1cccc(F)c1F (racemic) tested on ryegrass, Italian.
Result: 20

Q: Lab note: record Plant response rating, Ryegrass, Italian of Cc1ccc(C2CNC(=O)C2C(=O)Nc2cccc(F)c2)cc1 (racemic) tested on ryegrass, Italian.
Result: 0

Q: Lab note: record Plant response rating, Ryegrass, Italian of O=C1NCC(c2ccc(-c3ccccc3C(F)(F)F)cc2)C1C(=O)Nc1cccc(F)c1F (stereo not drawn) tested on ryegrass, Italian.
Result: 0
